B1: CLPTM1 (parent)
chain: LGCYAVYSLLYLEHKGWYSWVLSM

# Variants of: B1
# assay: protein stability index of a GFP-peptide fusion (GPS, HEK-293T) (PSI 1-6); higher = more stable;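 also: lentivirally expressed fusions sorted by FACS into six bins by GFP to DsRed ratio, PSI derived from sequencing read proportions per bin multiplied by bin number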
# setup conditions: c terminus: a fixed tail appended
Assign Met whenever protein stability index does not fall below 3; assign Not met whenever it does.

V6M = Not met

## Input Given Y7R , state whether its protein stability index is at least 3.
## Output Not met

## Input Quick check, protein stability index >= 3? L22W
## Output Not met
